EXPERIMENTAL_PARAMETERS: buffer; pH 7.4; 200.0 µM

>  <COMPOUND>
COc1ccc(S(N)(=O)=O)cc1C(=O)OCC(=O)N1CCCC(C)C1 (configuration not stated)

>  <solubility kinetic>
> 55.6 µg/mL

$$$$
>  <COMPOUND>
NS(=O)(=O)c1ccc(NC(=O)Cc2cccs2)cc1

>  <solubility kinetic>
> 44.5 µg/mL

$$$$
>  <COMPOUND>
CC1CN(C(=O)COC(=O)c2ccc(C#N)cc2)CC(C)O1 (configuration not stated)

>  <solubility kinetic>
> 45.3 µg/mL

$$$$
>  <COMPOUND>
CN(C)/C=C/C(=O)c1ccc(Br)s1

>  <solubility kinetic>
> 39 µg/mL

$$$$
>  <COMPOUND>
O=C(CC(=O)NCc1ccccc1)NCc1ccccc1

>  <solubility kinetic>
> 42.4 µg/mL

$$$$
>  <COMPOUND>
Cc1ccc(N2C(=NC(=O)c3ccccc3)SC3CS(=O)(=O)CC32)cc1 (configuration not stated)

>  <solubility kinetic>
< 0.4 µg/mL

$$$$
>  <COMPOUND>
CCc1[nH]c(C(=O)O)c(C)c1C(=O)OC

>  <solubility kinetic>
> 31.7 µg/mL

$$$$
>  <COMPOUND>
CNC(=O)CN1C(=O)NC(Cc2c[nH]c3ccccc23)C1=O (configuration not stated)

>  <solubility kinetic>
> 45 µg/mL

$$$$
>  <COMPOUND>
COc1ccc(/C(C)=N/N2CCOCC2)c(O)c1

>  <solubility kinetic>
> 37.5 µg/mL

$$$$
>  <COMPOUND>
Cc1cc(C)cc(C(=O)N2CCN(Cc3ccc4c(c3)OCO4)CC2)c1

>  <solubility kinetic>
> 52.9 µg/mL

$$$$
>  <COMPOUND>
Cc1cccc(N(CC(=O)N2CCCCCC2)S(C)(=O)=O)c1

>  <solubility kinetic>
> 48.7 µg/mL

$$$$
>  <COMPOUND>
CC(NC(=O)CN1CCCC1)c1ccccc1 (configuration not stated)

>  <solubility kinetic>
> 34.8 µg/mL

$$$$

====

EXPERIMENTAL_PARAMETERS: buffer; pH 7.4; 200.0 µM
Label n if solubility kinetic falls below 5 µg/mL; label y in every other case.

>  <COMPOUND_STRUCTURE_STRING>
Cc1[nH]c2ccccc2c1C(=O)C(=O)N1CCC2(CC1)OCCO2

>  <CLASS_ASSIGNMENT>
y

$$$$
>  <COMPOUND_STRUCTURE_STRING>
NC(=O)c1ccccc1OCc1nc2ccccc2s1

>  <CLASS_ASSIGNMENT>
y

$$$$
>  <COMPOUND_STRUCTURE_STRING>
CSc1nc2cc(Oc3cccc(Cl)c3Cl)c(Cl)cc2[nH]1

>  <CLASS_ASSIGNMENT>
n

$$$$
>  <COMPOUND_STRUCTURE_STRING>
COc1ccccc1NC(=O)CC(=O)c1cccc([N+](=O)[O-])c1

>  <CLASS_ASSIGNMENT>
n

$$$$
>  <COMPOUND_STRUCTURE_STRING>
O=C(O)Cc1c(-c2ccccc2)c2cc(Br)ccc2[nH]c1=O

>  <CLASS_ASSIGNMENT>
y

$$$$
>  <COMPOUND_STRUCTURE_STRING>
CN(C)/C=C/C(=O)c1c(F)cccc1F

>  <CLASS_ASSIGNMENT>
y

$$$$

====

EXPERIMENTAL_PARAMETERS: buffer; pH 7.4; 200.0 µM

>  <COMPOUND_STRUCTURE_STRING>
O=C(NCc1ccccc1)c1ccc[nH+]c1.[Cl-]

>  <solubility kinetic>
> 37.3 µg/mL

$$$$
>  <COMPOUND_STRUCTURE_STRING>
CCc1ccc2nc(N)sc2c1

>  <solubility kinetic>
> 26.7 µg/mL

$$$$
>  <COMPOUND_STRUCTURE_STRING>
Cc1nn(CC(=O)NCCCN2CCCC2=O)c(C)c1[N+](=O)[O-]

>  <solubility kinetic>
> 48.5 µg/mL

$$$$

====

EXPERIMENTAL_PARAMETERS: buffer; pH 7.4; 200.0 µM

>  <COMPOUND>
CCC(=O)Nc1cccc(C(=O)Nc2nccs2)c1

>  <UNIT_STRING>
µg/mL

>  <INEQUALITY_SYMBOL>
>

>  <solubility kinetic>
41.3

$$$$
>  <COMPOUND>
OCCC1CN(Cc2ccsc2)CCN1C1CCCC1 (stereo not given)

>  <UNIT_STRING>
µg/mL

>  <INEQUALITY_SYMBOL>
>

>  <solubility kinetic>
44.2

$$$$
>  <COMPOUND>
CC(CN)(NS(=O)(=O)c1ccccc1)c1ccccc1 (stereo not given)

>  <UNIT_STRING>
µg/mL

>  <INEQUALITY_SYMBOL>
>

>  <solubility kinetic>
43.6

$$$$
>  <COMPOUND>
CC(C)n1cc(/C(N)=N/O)c(=O)n(Cc2ccccc2)c1=O

>  <UNIT_STRING>
µg/mL

>  <INEQUALITY_SYMBOL>
>

>  <solubility kinetic>
45.3

$$$$
>  <COMPOUND>
O=C(Cc1ncc(C(F)(F)F)cc1Cl)NC1CC1

>  <UNIT_STRING>
µg/mL

>  <INEQUALITY_SYMBOL>
>

>  <solubility kinetic>
41.8

$$$$
>  <COMPOUND>
Cc1cccc(NC(=O)c2cc3cc([N+](=O)[O-])ccc3s2)n1

>  <UNIT_STRING>
µg/mL

>  <INEQUALITY_SYMBOL>
<

>  <solubility kinetic>
0.2

$$$$
>  <COMPOUND>
O=C(Nc1ccc2oc(=O)ccc2c1)c1ccc(-c2cccc([N+](=O)[O-])c2)o1

>  <UNIT_STRING>
µg/mL

>  <INEQUALITY_SYMBOL>
=

>  <solubility kinetic>
3.5

$$$$
>  <COMPOUND>
CCN(C(=O)CN1CCC(C(=O)OC)CC1)c1c(N)n(Cc2ccccc2)c(=O)[nH]c1=O

>  <UNIT_STRING>
µg/mL

>  <INEQUALITY_SYMBOL>
>

>  <solubility kinetic>
66.5

$$$$
>  <COMPOUND>
Cc1onc(-c2ccccc2)c1CNC(=O)Nc1ccccc1

>  <UNIT_STRING>
µg/mL

>  <INEQUALITY_SYMBOL>
>

>  <solubility kinetic>
46.1

$$$$
>  <COMPOUND>
S=C(NC1CCCCC1)N1CCc2[nH]c3ccccc3c2C1

>  <UNIT_STRING>
µg/mL

>  <INEQUALITY_SYMBOL>
=

>  <solubility kinetic>
1.3

$$$$
>  <COMPOUND>
COc1cccc(CC(=O)OCC(=O)NC2CCCCCC2)c1

>  <UNIT_STRING>
µg/mL

>  <INEQUALITY_SYMBOL>
>

>  <solubility kinetic>
47.9

$$$$
>  <COMPOUND>
COc1ccccc1OCCCN1C(=O)C(=O)c2cccc(C)c21

>  <UNIT_STRING>
µg/mL

>  <INEQUALITY_SYMBOL>
=

>  <solubility kinetic>
40.1

$$$$
>  <COMPOUND>
CCCCCCCn1c(NC(=O)CC)nc2ccccc21

>  <UNIT_STRING>
µg/mL

>  <INEQUALITY_SYMBOL>
=

>  <solubility kinetic>
13.8

$$$$
>  <COMPOUND>
O=C(COC(=O)c1cc(F)cc(F)c1)NCCCc1ccccc1

>  <UNIT_STRING>
µg/mL

>  <INEQUALITY_SYMBOL>
=

>  <solubility kinetic>
3.7

$$$$
>  <COMPOUND>
O=C(NC(=O)c1ccccc1)Nc1ccccc1O

>  <UNIT_STRING>
µg/mL

>  <INEQUALITY_SYMBOL>
=

>  <solubility kinetic>
2.1

$$$$
>  <COMPOUND>
Cc1nc(C)c(N)c(=O)[nH]1.Cl

>  <UNIT_STRING>
µg/mL

>  <INEQUALITY_SYMBOL>
>

>  <solubility kinetic>
26.3

$$$$
>  <COMPOUND>
Cc1ccc(-c2cn(-c3ccccc3)c(=S)[nH]2)cc1C

>  <UNIT_STRING>
µg/mL

>  <INEQUALITY_SYMBOL>
=

>  <solubility kinetic>
16.6

$$$$
>  <COMPOUND>
Cc1cccc(C2NC(c3cccc(C)c3)C(C)C(=O)C2C)c1 (stereo not given)

>  <UNIT_STRING>
µg/mL

>  <INEQUALITY_SYMBOL>
=

>  <solubility kinetic>
0.8

$$$$
>  <COMPOUND>
O=C(NCc1cccc(C(F)(F)F)c1)N1CCN(C(=O)c2ccccc2)CC1

>  <UNIT_STRING>
µg/mL

>  <INEQUALITY_SYMBOL>
>

>  <solubility kinetic>
58.7

$$$$
>  <COMPOUND>
C=CCN1C(=O)/C(=C/c2ccc(Br)s2)C(=O)NC1=S

>  <UNIT_STRING>
µg/mL

>  <INEQUALITY_SYMBOL>
=

>  <solubility kinetic>
15.7

$$$$
